- Test system: SCC-4 (Oral Cavity Carcinoma)
- assay_comment: combination Emax (second highest fraction inhibited in the dose matrix, 72 h); higher = more inhibition; extreme values may be limits of the assay
Response key: MET means combination Emax >= 0.5; NOT MET means combination Emax < 0.5.

1) CC(=O)c1c(C)c2cnc(Nc3ccc(N4CCNCC4)cn3)nc2n(C2CCCC2)c1=O [Palbociclib] + CC1(C)CCC(CN2CCN(c3ccc(C(=O)NS(=O)(=O)c4ccc(NCC5CCOCC5)c([N+](=O)[O-])c4)c(Oc4cnc5[nH]ccc5c4)c3)CC2)=C(c2ccc(Cl)cc2)C1 [Venetoclax] (first compound max 10 µM, 7x7, partner max 1 µM) = NOT MET
2) CN(CCO)CC[C@H](CSc1ccccc1)Nc1ccc(S(=O)(=O)NC(=O)c2ccc(N3CCC([C@@H](O)c4ccccc4-c4ccc(Cl)cc4)CC3)cc2)cc1S(=O)(=O)C(F)(F)F [AZD4320] + CCN(CCO)CCCOc1ccc2c(Nc3cc(CC(=O)Nc4cccc(F)c4)[nH]n3)ncnc2c1 [AZD2811] (first compound max 1 µM, 7x7, partner max 1 µM) = MET
3) CC1(C)CCC(CN2CCN(c3ccc(C(=O)NS(=O)(=O)c4ccc(NCC5CCOCC5)c([N+](=O)[O-])c4)c(Oc4cnc5[nH]ccc5c4)c3)CC2)=C(c2ccc(Cl)cc2)C1 [Venetoclax] + Cn1cnc2c(F)c(Nc3ccc(Br)cc3Cl)c(C(=O)NOCCO)cc21 [Selumetinib] (first compound max 1 µM, 7x7, partner max 3 µM) = NOT MET
4) Cc1cc2ncnn2cc1Nc1ncc2c(n1)n(C1CCOCC1)c(=O)n2C [AZD7648] + COc1cc([C@@H]2c3cc4c(cc3[C@@H](O[C@@H]3O[C@@H]5CO[C@@H](C)O[C@H]5[C@H](O)[C@H]3O)[C@H]3COC(=O)[C@H]23)OCO4)cc(OC)c1O [Etoposide] (first compound max 10 µM, 7x7, partner max 10 µM) = NOT MET
5) COc1cccc(OCCCN)c1-c1cc(Nc2cnc(C#N)cn2)n[nH]1 [Prexasertib] + Cc1cc2ncnn2cc1Nc1ncc2c(n1)n(C1CCOCC1)c(=O)n2C [AZD7648] (first compound max 1 µM, 7x7, partner max 10 µM) = MET
6) Cc1c2c(nn1C)CSCc1cc(n(C)n1)CSc1cc(c3ccccc3c1)OCCCc1c(C(=O)O)n(C)c3c-2c(Cl)ccc13 [AZD5991] + Cc1cc2ncnn2cc1Nc1ncc2c(n1)n(C1CCOCC1)c(=O)n2C [AZD7648] (first compound max 1 µM, 7x7, partner max 10 µM) = NOT MET
7) C=CCn1c(=O)c2cnc(Nc3ccc(N4CCN(C)CC4)cc3)nc2n1-c1cccc(C(C)(C)O)n1 [AZD1775] + CCc1c2c(nc3ccc(O)cc13)-c1cc3c(c(=O)n1C2)COC(=O)[C@]3(O)CC [SN-38] (first compound max 1 µM, partner max 0.3 µM) = MET

###

Overview of reported Bliss excess across a group of compounds:
- Tested on: SK-N-SH (Neuroblastoma)
- assay_comment: Bliss excess, mean over the matrix (fraction); higher = more synergy
experimental_endpoint: Bliss excess

1. C[C@@H](Oc1cc(-c2cnn(C3CCNCC3)c2)cnc1N)c1c(Cl)ccc(F)c1Cl [Crizotinib] + Cn1cnc2c(F)c(Nc3ccc(Br)cc3Cl)c(C(=O)NOCCO)cc21 [Selumetinib] (first compound max 10 µM, 7x7, partner max 10 µM) = -0.0546
2. CS(=O)(=O)CCNCc1ccc(-c2ccc3ncnc(Nc4ccc(OCc5cccc(F)c5)c(Cl)c4)c3c2)o1 [Lapatinib] + Cn1cnc2c(F)c(Nc3ccc(Br)cc3Cl)c(C(=O)NOCCO)cc21 [Selumetinib] (first compound max 10 µM, 7x7, partner max 10 µM) = -0.0123
3. COc1cccc2c1C(=O)c1c(O)c3c(c(O)c1C2=O)C[C@@](O)(C(=O)CO)C[C@@H]3O[C@H]1C[C@H](N)[C@H](O)[C@H](C)O1 [Doxorubicin] + Cc1cc2ncnn2cc1Nc1ncc2c(n1)n(C1CCOCC1)c(=O)n2C [AZD7648] (first compound max 1 µM, 7x7, partner max 10 µM) = 0.0605
4. COc1nnc2ccc(N3CCC(c4ccc(OCCN5CCN(C)C(=O)[C@H]5C)cc4)CC3)nn12 [AZD5153] + Cn1cnc2c(F)c(Nc3ccc(Br)cc3Cl)c(C(=O)NOCCO)cc21 [Selumetinib] (first compound max 1 µM, 7x7, partner max 10 µM) = -0.0142

###

- Tested on: MS-1 (Small Cell Lung Carcinoma)
- assay_comment: combination Emax (second highest fraction inhibited in the dose matrix, 72 h); higher = more inhibition; extreme values may be limits of the assay
experimental_endpoint: combination Emax

1) Cc1nc(-c2cn3c(n2)-c2ccc(-c4cnn(C(C)(C)C(N)=O)c4)cc2OCC3)n(C(C)C)n1 [Taselisib] + O=C(Nc1ccc2[nH]nc(-c3ccncc3)c2c1)[C@@H]1CCN(CC(=O)N2CCN(c3ccc(-c4ncccn4)cc3)CC2)C1 [SCH772984] (first compound max 10 µM, 7x7, partner max 5 µM) = 0.48
2) CCN(CCO)CCCOc1ccc2c(Nc3cc(CC(=O)Nc4cccc(F)c4)[nH]n3)ncnc2c1 [AZD2811] + C=CCn1c(=O)c2cnc(Nc3ccc(N4CCN(C)CC4)cc3)nc2n1-c1cccc(C(C)(C)O)n1 [AZD1775] (first compound max 1 µM, partner max 1 µM) = 0.848

###

Overview of reported combination Emax across a group of molecules:
- Tested on: CPC-N (Small Cell Lung Carcinoma)
- assay_comment: combination Emax (second highest fraction inhibited in the dose matrix, 72 h); higher = more inhibition; extreme values may be limits of the assay
experimental_endpoint: combination Emax

1. CN(C)CCCOc1ccc(-c2ccc3ncc4c(c3c2)n(C2CCOCC2)c(=O)n4C)cn1 [AZD0156] + C=CCn1c(=O)c2cnc(Nc3ccc(N4CCN(C)CC4)cc3)nc2n1-c1cccc(C(C)(C)O)n1 [AZD1775] (first compound max 1 µM, partner max 1 µM) = 0.972
2. CC1(C)CCC(CN2CCN(c3ccc(C(=O)NS(=O)(=O)c4ccc(NCC5CCOCC5)c([N+](=O)[O-])c4)c(Oc4cnc5[nH]ccc5c4)c3)CC2)=C(c2ccc(Cl)cc2)C1 [Venetoclax] + CS(=O)(=O)CCNCc1ccc(-c2ccc3ncnc(Nc4ccc(OCc5cccc(F)c5)c(Cl)c4)c3c2)o1 [Lapatinib] (first compound max 1 µM, 7x7, partner max 10 µM) = 0.148

###

- System: AM-38 (Glioblastoma)
- assay_comment: Bliss excess, mean over the matrix (fraction); higher = more synergy
Overview of reported Bliss excess across a group of compounds:
experimental_endpoint: Bliss excess

1. C=CCn1c(=O)c2cnc(Nc3ccc(N4CCN(C)CC4)cc3)nc2n1-c1cccc(C(C)(C)O)n1 [AZD1775] + C[C@@H]1COCCN1C2=NC(=NC(=C2)C3(CC3)[S@](=N)(=O)C)C4=C5C=CNC5=NC=C4 [AZD6738] (first compound max 1 µM, partner max 10 µM) = 0.0618
2. Cn1cnc2c(F)c(Nc3ccc(Br)cc3Cl)c(C(=O)NOCCO)cc21 [Selumetinib] + C[C@@H]1COCCN1C2=NC(=NC(=C2)C3(CC3)[S@](=N)(=O)C)C4=C5C=CNC5=NC=C4 [AZD6738] (first compound max 10 µM, 7x7, partner max 10 µM) = 0.104
3. CC1(C)CCC(CN2CCN(c3ccc(C(=O)NS(=O)(=O)c4ccc(NCC5CCOCC5)c([N+](=O)[O-])c4)c(Oc4cnc5[nH]ccc5c4)c3)CC2)=C(c2ccc(Cl)cc2)C1 [Venetoclax] + CCN(CCO)CCCOc1ccc2c(Nc3cc(CC(=O)Nc4cccc(F)c4)[nH]n3)ncnc2c1 [AZD2811] (first compound max 1 µM, 7x7, partner max 1 µM) = -0.0506
4. CC(=O)c1c(C)c2cnc(Nc3ccc(N4CCNCC4)cn3)nc2n(C2CCCC2)c1=O [Palbociclib] + Cc1c2c(nn1C)CSCc1cc(n(C)n1)CSc1cc(c3ccccc3c1)OCCCc1c(C(=O)O)n(C)c3c-2c(Cl)ccc13 [AZD5991] (first compound max 10 µM, 7x7, partner max 1 µM) = -0.0448

###

- System: NCI-H596 (Other Solid Carcinomas)
- assay_comment: Bliss excess, mean over the matrix (fraction); higher = more synergy
Overview of reported Bliss excess across a group of molecules:
experimental_endpoint: Bliss excess

1) Cc1cc2ncnn2cc1Nc1ncc2c(n1)n(C1CCOCC1)c(=O)n2C [AZD7648] + CN(C)CCCOc1ccc(-c2ccc3ncc4c(c3c2)n(C2CCOCC2)c(=O)n4C)cn1 [AZD0156] (first compound max 10 µM, 7x7, partner max 1 µM) = -0.002
2) CCc1c2c(nc3ccc(O)cc13)-c1cc3c(c(=O)n1C2)COC(=O)[C@]3(O)CC [SN-38] + CN(C)CCCOc1ccc(-c2ccc3ncc4c(c3c2)n(C2CCOCC2)c(=O)n4C)cn1 [AZD0156] (first compound max 0.3 µM, 7x7, partner max 1 µM) = 0.027
3) CC1(C)CCC(CN2CCN(c3ccc(C(=O)NS(=O)(=O)c4ccc(NCC5CCOCC5)c([N+](=O)[O-])c4)c(Oc4cnc5[nH]ccc5c4)c3)CC2)=C(c2ccc(Cl)cc2)C1 [Venetoclax] + C[C@@H](Nc1cc(F)cc(F)c1)c1cc(C(=O)N(C)C)cc2c(=O)cc(N3CCOCC3)oc12 [AZD8186] (first compound max 1 µM, 7x7, partner max 3 µM) = -0.0378
